Data provenance is PubChem BioAssay (EPA / NIEHS).

# Read-out: 3-Hydroxy-3-Methylglutaryl-CoA Synthase 2 (HMGCS2), HMGCS2 (gene 3158)
# assay: LTEA_HepaRG_HMGCS2: Life Technologies and Expression Analysis (LTEA) Assay for 3-Hydroxy-3-Methylglutaryl-CoA Synthase 2 (HMGCS2) using HepaRG (AID 2283504)
# test context: mRNA level, 48 h; actives raise or lower the signal
Active and inactive are the calls of the source. Rule for the calls: active = hit-call score of the fitted dose curve at least 0.9, where 1 is the maximum; inactive = score below 0.9.
measured quantity: AC50

- smiles record: "Cc1cc(CCN2CCN(c3nsc4ccccc34)CC2)cc2c1NC(=O)CC2(C)C"
  AC50: "78 µM (active)"
- smiles record: "CCCCCCC(=O)O"
  AC50: "inactive"
- smiles record: "CCN(CC)CCNc1ccc(CNC=O)c2sc3ccc(OC)cc3c(=O)c12"
  AC50: "74.3 µM (active)"
- smiles record: "CC(C)(C)CC(C)(C)c1ccc(O)c(-n2nc3ccccc3n2)c1"
  AC50: "50 µM (active)"

Turning to the following compound.
If you can, please state the reported AC50 value of C[C@@H]1C[C@H]2[C@@H]3CCC4=CC(=O)C=C[C@]4(C)[C@@]3(F)[C@@H](O)C[C@]2(C)[C@@]1(O)C(=O)COP(=O)(O)O . inactive

====

# target or system: Androgen Receptor/SRC-1 Co-activator, AR (gene 367) (UniProt P10275)
# Sequence (P10275 whole entry, looked up): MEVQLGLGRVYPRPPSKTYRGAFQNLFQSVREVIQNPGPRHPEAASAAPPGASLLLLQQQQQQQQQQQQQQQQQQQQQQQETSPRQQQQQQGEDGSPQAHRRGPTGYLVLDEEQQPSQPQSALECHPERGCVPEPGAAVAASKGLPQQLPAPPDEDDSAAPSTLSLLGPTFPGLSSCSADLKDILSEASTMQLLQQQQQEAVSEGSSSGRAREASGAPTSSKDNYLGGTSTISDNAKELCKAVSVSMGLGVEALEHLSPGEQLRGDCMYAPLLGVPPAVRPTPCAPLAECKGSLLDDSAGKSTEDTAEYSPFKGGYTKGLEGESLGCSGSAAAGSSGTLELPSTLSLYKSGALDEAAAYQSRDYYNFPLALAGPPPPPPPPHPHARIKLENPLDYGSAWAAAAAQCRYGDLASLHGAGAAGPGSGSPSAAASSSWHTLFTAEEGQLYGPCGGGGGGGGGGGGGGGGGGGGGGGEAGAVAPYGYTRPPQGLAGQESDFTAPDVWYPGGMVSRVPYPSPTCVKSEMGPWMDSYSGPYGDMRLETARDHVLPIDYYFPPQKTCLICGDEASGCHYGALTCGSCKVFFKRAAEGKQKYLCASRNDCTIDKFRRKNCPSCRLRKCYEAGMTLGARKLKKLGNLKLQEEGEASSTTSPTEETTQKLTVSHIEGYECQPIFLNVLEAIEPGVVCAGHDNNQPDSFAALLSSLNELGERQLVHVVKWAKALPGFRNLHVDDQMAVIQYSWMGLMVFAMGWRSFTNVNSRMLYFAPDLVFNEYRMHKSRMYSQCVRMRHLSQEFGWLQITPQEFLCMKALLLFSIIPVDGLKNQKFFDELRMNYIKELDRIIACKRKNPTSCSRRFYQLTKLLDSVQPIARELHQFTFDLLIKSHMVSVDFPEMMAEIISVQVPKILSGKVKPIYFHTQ
# assay: OT_AR_ARSRC1_0960: Odyssey Thera (OT) 16-hour HEK293T Protein-Complementation Assay for Androgen Receptor/SRC-1 Co-activator (AID 2283353);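 note: actives raise the signal above DMSO so potency reflects increased AR and SRC-1 complex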
Calls of active or inactive are those of the source. The calls were made as follows: active = hit-call score of the fitted dose curve at least 0.9, where 1 is the maximum; inconclusive = response in the unintended direction; inactive = score below 0.9.
Please reply with one of these outcomes: active, inactive

Recorded results for 8 molecules are shown here.
- molecule: "O=c1c(-c2ccc(O)cc2)coc2cc(O)ccc12"
  target or system: "Androgen Receptor/SRC-1 Co-activator, AR (gene 367) (UniProt P10275)"
  category: "inactive"
- molecule: "c1ccc2c(c1)ccc1ccccc12"
  target or system: "Androgen Receptor/SRC-1 Co-activator, AR (gene 367) (UniProt P10275)"
  category: "inactive"
- molecule: "Cc1oc(-c2ccccc2)nc1CCOc1ccc(C[C@H](Nc2ccccc2C(=O)c2ccccc2)C(=O)O)cc1"
  target or system: "Androgen Receptor/SRC-1 Co-activator, AR (gene 367) (UniProt P10275)"
  category: "active"
- molecule: "COCC(C)OCC(C)O (centres undefined)"
  target or system: "Androgen Receptor/SRC-1 Co-activator, AR (gene 367) (UniProt P10275)"
  category: "inactive"
- molecule: "CC(=O)CC(C)(C)O"
  target or system: "Androgen Receptor/SRC-1 Co-activator, AR (gene 367) (UniProt P10275)"
  category: "inactive"
- molecule: "N#C[C@@H]1CC(F)(F)CN1C(=O)CNC1CC2CCC(C1)N2c1ncccn1 (some centres undefined)"
  target or system: "Androgen Receptor/SRC-1 Co-activator, AR (gene 367) (UniProt P10275)"
  category: "inactive"
- molecule: "OCCC(F)(F)C(F)(F)C(F)(F)C(F)(F)C(F)(F)C(F)(F)C(F)(F)C(F)(F)F"
  target or system: "Androgen Receptor/SRC-1 Co-activator, AR (gene 367) (UniProt P10275)"
  category: "inactive"
- molecule: "Cc1cc(CCN2CCN(c3nsc4ccccc34)CC2)cc2c1NC(=O)CC2(C)C"
  target or system: "Androgen Receptor/SRC-1 Co-activator, AR (gene 367) (UniProt P10275)"
  category: "active"

We next turn to a different molecule, shown below.
Please state the recorded outcome for this molecule: O=C(O)c1ccccc1C(c1ccc(O)cc1)c1ccc(O)cc1 inactive

====

# Read-out: Matrix Metallopeptidase 1 (MMP1), MMP1 (gene 4312)
# assay: BSK_BE3C_MMP1: BioMAP Diversity Plus: BE3C Assay for Matrix Metallopeptidase 1 (MMP1) Biomarker Activity (AID 2283024)
# test context: primary human bronchial epithelial cells; actives raise or lower the signal
# Experimental: BSK_BE3C is a cell-based, multiplexed-readout assay that uses bronchial epithelial cell, a human lung primary cell, with measurements taken at 24 hours after chemical dosing in a 96-well plate.BSK_BE3C_MMP1 is an assay component measured in the BSK_BE3C assay. It measures MMP-1 antibody related to regulation of gene expression using ELISA technology.Data from the assay component BSK_BE3C_MMP1 was analyzed into 1 assay endpoint. […]
Active and inactive are the calls of the source. The calls were made as follows: active = hit-call score of the fitted dose curve at least 0.9, where 1 is the maximum; inactive = score below 0.9.
Please reply with one of these outcomes: T for active, F for inactive

Recorded results for 4 compounds are shown here.
- compound: "Oc1cc2ccccc2c2ccccc12"
  category: "T"
- compound: "C=C(C)C(=O)OCCC(F)(F)C(F)(F)C(F)(F)C(F)(F)C(F)(F)C(F)(F)F"
  category: "F"
- compound: "CN(C)C=O"
  category: "F"
- compound: "CCC(=C(c1ccc(O)cc1)c1ccc(OCCN(C)C)cc1)c1ccccc1"
  category: "T"

Please state the recorded outcome for this compound: COCC(C)O (centres undefined) F

Please state the recorded outcome for this compound: OC1CCC(C2CCCCC2)CC1 (centres undefined) F

Please state the recorded outcome for this compound: Cc1oc(-c2ccccc2)nc1CCOc1ccc(C[C@H](Nc2ccccc2C(=O)c2ccccc2)C(=O)O)cc1 F

Please state the recorded outcome for this compound: OCCC(F)(F)C(F)(F)C(F)(F)C(F)(F)C(F)(F)C(F)(F)F F

Please state the recorded outcome for this compound: CC(C)CCCCCCOC(=O)CCCCC(=O)OCCCCCCC(C)C F

====

# Read-out: CYP2E1 (gene 1571)
# assay: LTEA_HepaRG_CYP2E1: Life Technologies and Expression Analysis (LTEA) Assay for CYP2E1 using HepaRG (AID 2283485)
# test context: mRNA level, 48 h; actives raise or lower the signal
Activity calls are given as the source filed them. The calls were made as follows: active = hit-call score of the fitted dose curve at least 0.9, where 1 is the maximum; inactive = score below 0.9.
Please reply with one of these outcomes: 1.0 = active, 0.0 = inactive

Recorded results for 5 compounds are shown here.
- compound: "NC(=O)N1C(=O)C(C(=O)c2cc(Cl)cs2)c2cc(F)c(Cl)cc21 (configuration not stated)"
  category: 1.0
- compound: "Cc1cc(C)c(O)c(C)c1"
  category: 1.0
- compound: "C#C[C@]1(O)CC[C@H]2[C@@H]3CCC4=CC(=O)CC[C@@H]4[C@H]3CC[C@@]21C"
  category: 1.0
- compound: "CCCCCCCCCCCCc1ccccc1S(=O)(=O)O"
  category: 1.0
- compound: "CC[C@H](C)[C@@H](C(=O)O)n1sc2ccccc2c1=O"
  category: 0.0

Please state the recorded outcome for this compound: Cc1oc(-c2ccccc2)nc1CCOc1ccc(C[C@H](Nc2ccccc2C(=O)c2ccccc2)C(=O)O)cc1 1.0

Please state the recorded outcome for this compound: ClC1=C(Cl)C(Cl)(Cl)C(Cl)=C1Cl 0.0

====

# target or system: Bile acid receptor (Homo sapiens) (UniProt Q96RI1)
# Sequence (Q96RI1 whole entry, looked up): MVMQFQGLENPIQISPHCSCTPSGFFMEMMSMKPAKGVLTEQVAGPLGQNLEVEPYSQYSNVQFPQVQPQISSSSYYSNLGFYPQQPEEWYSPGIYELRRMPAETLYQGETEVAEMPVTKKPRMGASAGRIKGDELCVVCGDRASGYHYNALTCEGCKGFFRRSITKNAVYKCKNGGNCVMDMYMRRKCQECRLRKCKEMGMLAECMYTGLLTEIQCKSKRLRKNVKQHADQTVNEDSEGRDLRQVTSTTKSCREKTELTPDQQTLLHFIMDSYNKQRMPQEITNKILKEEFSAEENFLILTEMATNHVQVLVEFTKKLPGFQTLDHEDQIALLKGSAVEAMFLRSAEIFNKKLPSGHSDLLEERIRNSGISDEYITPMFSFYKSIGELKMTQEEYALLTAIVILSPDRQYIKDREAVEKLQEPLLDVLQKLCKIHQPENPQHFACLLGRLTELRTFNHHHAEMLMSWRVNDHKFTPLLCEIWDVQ
# assay: OT_FXR_FXRSRC1_1440: Odyssey Thera (OT) 24-hour HEK293T Protein-Complementation Assay for Farnesoid X receptor/SRC-1 Co-activator (AID 2283384)
Results filed as inconclusive are left out. Activity calls are given as the source filed them. Rule for the calls: active = hit-call score of the fitted dose curve at least 0.9, where 1 is the maximum; inconclusive = response in the unintended direction; inactive = score below 0.9.
measured quantity: AC50

Worked cases, AC50 given:
- compound: "CN(C)C=O"
  result: "inactive"
- compound: "COCC(C)OCC(C)O (stereo not given)"
  result: "inactive"
- compound: "CCN(CC)CCNc1ccc(CNC=O)c2sc3ccc(OC)cc3c(=O)c12"
  result: "11.9 µM (active)"
- compound: "Oc1cccc(O)c1"
  result: "inactive"
- compound: "CCCOC(=O)c1ccc(O)cc1"
  result: "58.5 µM (active)"
- compound: "O=C1OC2(c3ccccc31)c1cc(Br)c(O)c(Br)c1Oc1c2cc(Br)c(O)c1Br"
  result: "inactive"
- compound: "CCCCC(CC)COC(=O)CCCCC(=O)OCc1ccccc1 (stereo not given)"
  result: "inactive"
- compound: "O=C(OCCOCCOC(=O)c1ccccc1)c1ccccc1"
  result: "inactive"

Give AC50 for all compounds that follow.
1. C=C(C)C(=O)OCCC(F)(F)C(F)(F)C(F)(F)C(F)(F)C(F)(F)C(F)(F)F
2. COc1ccc([N+](=O)[O-])cc1N
3. CC(C)(C)c1cc(C(C)(C)C)c(O)c(C(C)(C)C)c1
4. CCCCCCCCCCCCN1CCCC1=O
5. CCCCOCCO
6. OCCC(F)(F)C(F)(F)C(F)(F)C(F)(F)C(F)(F)C(F)(F)F

["inactive", "inactive", "92.6 µM (active)", "11.2 µM (active)", "inactive", "inactive"]

Give AC50 for all compounds that follow.
1. Cc1cc(CCN2CCN(c3nsc4ccccc34)CC2)cc2c1NC(=O)CC2(C)C
2. CCCCC(CC)COC(=O)CCCCC(=O)OCC(CC)CCCC (stereo not given)
3. NC(=O)N1C(=O)C(C(=O)c2cc(Cl)cs2)c2cc(F)c(Cl)cc21 (stereo not given)
4. CC(=O)NC1(c2cccc(F)c2)CCN(CC[C@@]2(c3ccc(Cl)c(Cl)c3)CN(c3ccccc3)C(=O)CO2)CC1
5. N#C[C@@H]1CC(F)(F)CN1C(=O)CNC1CC2CCC(C1)N2c1ncccn1 (stereo not given in full)
6. Cc1cc(C)c(O)c(C)c1

1: inactive; 2: inactive; 3: 81.9 µM (active); 4: 9.83 µM (active); 5: inactive; 6: inactive
